- testedTarget: human recombinant serotonin (5-Hydroxytryptamine) 5-HT2C receptor (Homo sapiens, UniProt P28335)
- Construct: expressed in transfected cells; host or cells: CHO-K1 cells
- Sequence (P28335 33-458): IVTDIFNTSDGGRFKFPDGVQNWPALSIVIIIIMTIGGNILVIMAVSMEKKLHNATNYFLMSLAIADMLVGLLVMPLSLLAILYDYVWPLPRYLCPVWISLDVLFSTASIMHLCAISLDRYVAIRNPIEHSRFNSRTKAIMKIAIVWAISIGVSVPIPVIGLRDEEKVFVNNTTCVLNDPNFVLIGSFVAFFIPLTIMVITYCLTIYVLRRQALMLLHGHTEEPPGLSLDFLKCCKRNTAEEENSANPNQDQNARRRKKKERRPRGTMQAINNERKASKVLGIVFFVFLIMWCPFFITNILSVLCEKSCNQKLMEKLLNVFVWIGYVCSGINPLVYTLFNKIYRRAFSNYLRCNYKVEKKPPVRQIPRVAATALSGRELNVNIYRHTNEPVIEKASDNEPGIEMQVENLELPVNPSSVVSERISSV
- assayNotes: Serotonin 5-HT2C radioligand binding ([3H]Mesulergine)
- condition: compound at 1 μM; read-out: Serotonin (1 μM) 5-HT2C, percent inhibition of specific binding
Assign inhibition at 1 µM to each entry below.
Remember to quote the unit after the number.

## Task What does the data say about its inhibition at 1 µM? Entry: Cc1ccc2c(c1)c1c(n2CC(O)c2ccccc2F)CCN(C)CC1 (stereo not drawn) [Compound No. 41]
## Result 99%

## Task // query: CN1CCc2c(n(CC(O)c3ccccc3F)c3ccc(Cl)cc23)CC1 (stereo not drawn) [Compound No. 40]
## Result 97%

## Task Now the same for Cc1ccc2c(c1)c1c(n2/C=C/c2ccccc2)CCN(C)CC1 [Compound No. 229]
## Result 98%

## Task Consider next the compound CN1CCc2c(n(CC(=O)N3CCNCC3)c3ccc(Cl)cc23)CC1 [Compound No. 72] in the same way.
## Result 53%

## Task What about CN1CCc2c(n(CCc3ccccc3Cl)c3ccc(Cl)cc23)CC1 [Compound No. 29] ?
## Result 101%

## Task Now the same for CN1CCc2c(n(CCc3ccccn3)c3ccc(Cl)cc23)CC1 [Compound No. 8]
## Result 95%

## Task Now the compound COc1ccc(/C=C/n2c3c(c4cc(Cl)ccc42)CCN(C)CC3)cc1OC [Compound No. 226]
## Result 82%

## Task What do you get for Cc1ccc2c(c1)c1c(n2C(=O)Cc2ccc(F)cc2)CCN(C)CC1 [Compound No. 285] ?
## Result 99%

## Task Same question for Cc1ccc2c(c1)c1c(n2CC(O)c2ccccc2)CCN(C)CC1 (stereo not drawn) [Compound No. 25] please.
## Result 94%

## Task Okay, and C/C(=C\n1c2c(c3cc(C)ccc31)CCN(C)CC2)c1cccnc1 [Compound No. 247] ?
## Result 99%

## Task Also, CN1CCc2c(n(CC(O)c3ccc(F)c(F)c3)c3ccc(Cl)cc23)CC1 (stereo not drawn) [Compound No. 58] please.
## Result 16%

## Task Repeat with COc1ccc(/C=C/n2c3c(c4cc(Cl)ccc42)CCN(C)CC3)cc1F [Compound No. 158]
## Result 99%

Hello, the source for this data is patent US9481676B2, in case you need it.
